All values here come from ChEMBL document CHEMBL3885861.

Attribute: Eos
species: Rattus norvegicus; assay: Open TG-GATES - Regimen: Single; format: toxicity, organism-based, Sprague-Dawley; set-up: regimen Single, gender Male, age 6 weeks; conditions: in vivo, po, 1000 mg/kg, 24 h, tissue Blood, route gavage, dose level High
endpoint-label: Eos (%)

- CC(C)OC(=O)C(C)(C)Oc1ccc(C(=O)c2ccc(Cl)cc2)cc1 [FENOFIBRATE]: 1
- CCOC(=O)CCC(=O)O[C@H]1[C@H](O[C@@H]2[C@@H](C)[C@H](O[C@H]3C[C@@](C)(OC)[C@@H](O)[C@H](C)O3)[C@@H](C)C(=O)O[C@H](CC)[C@@](C)(O)[C@H](O)[C@@H](C)C(=O)[C@H](C)C[C@@]2(C)O)O[C@H](C)C[C@@H]1N(C)C [ERYTHROMYCIN ETHYLSUCCINATE]: 1
- NC(N)=Nc1nc(CSCCC(N)=NS(N)(=O)=O)cs1: 1
- COC1=CC(=O)C[C@@H](C)[C@]12Oc1c(Cl)c(OC)cc(OC)c1C2=O: 0.8
- COc1ccc2[nH]c([S+]([O-])Cc3ncc(C)c(OC)c3C)nc2c1 (stereo not given): 1
